- system under test: serotonin 5-HT1A receptor (Rattus norvegicus)
- Construct: Rat cerebral cortex was homogenized in 20 volumes of ice-cold Tris-HCl buffer; from tissue; host or cells: rat brain (cerebral) cortex
- Sequence (P19327 whole entry): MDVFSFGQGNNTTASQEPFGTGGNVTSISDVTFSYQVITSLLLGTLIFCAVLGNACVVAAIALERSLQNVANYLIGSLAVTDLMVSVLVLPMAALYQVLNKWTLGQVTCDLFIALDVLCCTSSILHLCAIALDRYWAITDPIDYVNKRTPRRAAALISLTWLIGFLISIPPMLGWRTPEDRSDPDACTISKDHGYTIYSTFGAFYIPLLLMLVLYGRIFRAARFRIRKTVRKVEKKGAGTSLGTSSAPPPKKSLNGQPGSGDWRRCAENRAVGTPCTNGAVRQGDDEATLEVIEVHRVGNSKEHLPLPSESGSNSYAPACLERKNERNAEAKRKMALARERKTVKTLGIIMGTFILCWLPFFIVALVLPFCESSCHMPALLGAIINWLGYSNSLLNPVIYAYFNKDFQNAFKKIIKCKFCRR
- experiment description: 5-HT1A binding assay ([3H]8-OH-DPAT, rat brain cortex)
- measurement setup: [3H]8-OH-DPAT, rat brain cortex; mean of three experiments; >10000 marked b: Ki not calculated, inhibition at 10 µM too low; read-out: Ki±SEM, 5HT1A
compounds and their reported pKi
Just so you know, pKi here is -log10 of the concentration in molar units; reply with that number alone.

>  <compound>
Fc1ccc2c(C3CCN(CCCSc4nnc(-c5cccs5)o4)CC3)noc2c1 [Compound 24]

>  <pKi>
7.02

$$$$

Next compound, pKi to be filled in.
Task item: Dear colleague, I am looking for the recorded pKi of the following compound: Fc1ccc(-c2nnc(SCCCN3CCC(c4noc5cc(F)ccc45)CC3)o2)cc1 [Compound 20]
Reply: 7.83
